- Tested On: IDO1 (Homo sapiens, UniProt P14902)
- Sequence (P14902 6-403): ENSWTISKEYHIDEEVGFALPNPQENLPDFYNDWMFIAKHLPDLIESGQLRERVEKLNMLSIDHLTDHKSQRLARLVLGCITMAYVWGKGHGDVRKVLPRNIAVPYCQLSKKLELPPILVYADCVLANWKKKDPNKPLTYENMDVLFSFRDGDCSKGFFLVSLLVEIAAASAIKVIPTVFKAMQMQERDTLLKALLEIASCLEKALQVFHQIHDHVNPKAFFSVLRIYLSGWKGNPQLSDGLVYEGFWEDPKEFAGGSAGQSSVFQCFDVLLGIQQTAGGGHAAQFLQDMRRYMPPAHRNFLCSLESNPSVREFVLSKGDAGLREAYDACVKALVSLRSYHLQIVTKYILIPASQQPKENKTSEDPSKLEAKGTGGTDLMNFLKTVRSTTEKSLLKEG
- Experiment Notes: hIDO1 inhibitory potency evaluation (fluorescence assay, NFK-derived fluorophore)
- Type: biochemical
- Set-up: gene encoding human IDO1 residues 6-403 His-tagged at the N-terminus; His tag (N); made in house; host or cells: Escherichia coli NiCo21
Property Label: hIDO1 inhibition (in words)

O=C(Cn1cnc2onc(-c3ccc(F)cc3)c2c1=O)Nc1ccc(C2CCCCC2)cc1 | low micromolar range
COC(=O)c1ccc(NC(=O)Cn2cnc3onc(-c4ccccc4)c3c2=O)cc1 | low micromolar range

###

- Tested On: hTDO (Homo sapiens, UniProt P48775)
- Construct: purchased Vinci-Biochem
- Sequence (P48775 whole entry): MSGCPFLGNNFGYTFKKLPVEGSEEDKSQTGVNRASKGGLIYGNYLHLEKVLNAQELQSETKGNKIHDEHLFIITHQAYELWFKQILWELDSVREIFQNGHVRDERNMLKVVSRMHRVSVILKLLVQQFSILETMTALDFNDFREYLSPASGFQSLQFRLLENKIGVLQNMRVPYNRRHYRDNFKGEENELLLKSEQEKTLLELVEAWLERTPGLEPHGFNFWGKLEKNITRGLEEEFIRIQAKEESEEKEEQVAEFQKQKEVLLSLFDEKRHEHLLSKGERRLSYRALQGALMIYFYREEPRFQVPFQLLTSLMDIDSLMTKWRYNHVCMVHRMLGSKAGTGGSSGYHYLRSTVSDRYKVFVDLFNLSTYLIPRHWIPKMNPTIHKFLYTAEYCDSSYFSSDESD
- Experiment Notes: hTDO inhibitory potency evaluation (fluorescence assay)
- Type: biochemical
- Details: 100 µM compound; n.a. = not active; read-out: TDO % of Inhibition @ 100 µM
Property Label: inhibition at 100 µM (%)
# number only, unit % dropped from output

stdin: inhibition at 100 µM lookup needed for O=C(Cn1cnc2onc(-c3ccc(F)c(F)c3)c2c1=O)Nc1ccc([N+](=O)[O-])cc1 [Compound 48] , thanks.
stdout: 10

stdin: Look up inhibition at 100 µM for this compound: O=C(Cn1cnc2onc(-c3ccc(F)cc3)c2c1=O)Nc1cccc([N+](=O)[O-])c1 [Compound 24]
stdout: 25

stdin: // inhibition at 100 µM lookup, key: O=C(Cn1cnc2onc(-c3ccc(F)cc3)c2c1=O)Nc1ccc(-c2ncco2)cc1 [Compound 29]
stdout: 29

stdin: Which inhibition at 100 µM is reported for this compound? O=C(Cn1cnc2onc(-c3ccc(F)cc3)c2c1=O)Nc1ccc(-c2nn[nH]n2)cc1 [Compound 30]
stdout: 17
